Catalogue of growth inhibition values
Assay: NCI Yeast Anticancer Drug Screen. Data for the mec2-1 strain (AID 157)
Details: S. cerevisiae mec2-1 strain, at 50.0 µM, active compounds read high
About 79,000 compounds went through this panel and 15% of them were active in at least one assay; those are over-represented in the sample as a whole.
PARAMETER: growth inhibition (%)

INSERT INTO assay_data (molecule, parameter, output_unit, value) VALUES
  ('ClC1=CC(Cl)=C2N=C(C(Cl)(Cl)Cl)N=C3N=C(C(Cl)(Cl)Cl)N=C1N32', 'growth inhibition', '%', 99.5),
  ('CC/C(C)=N/OC(=O)Nc1ccccc1', 'growth inhibition', '%', 17.2),
  ('CCCCCCCCCCC(O)CN1CCN(c2cccc(Cl)c2)CC1 (stereo not drawn)', 'growth inhibition', '%', 98.7),
  ('O=C1C=C(c2ccccc2)OC1(Nc1ccccc1)c1ccccc1 (stereo not drawn)', 'growth inhibition', '%', 56.6),
  ('CN1N=C2c3ccccc3CC[C@H]2C1c1cccc(O)c1 (stereo partly drawn)', 'growth inhibition', '%', 23.4),
  ('Cc1cc(C)nc(NS(=O)(=O)c2ccc(Nc3c4ccccc4nc4c(C(=O)NC(CO)(CO)CO)cccc34)cc2)n1', 'growth inhibition', '%', -6.1),
  ('O=C1CC(c2ccccc2)NN1 (stereo not drawn)', 'growth inhibition', '%', 90.5),
  ('N#CC(O)C(Br)(Br)Br (stereo not drawn)', 'growth inhibition', '%', 74.3),
  ('COc1cccc2c1C(=O)c1c(O)c3c(c(O)c1C2=O)C[C@@](O)(C(=O)CO)C[C@@H]3OC1CC(N)CC(C)O1 (stereo partly drawn)', 'growth inhibition', '%', 90.4),
  ('CCOP(=O)(CCC(=O)[C@@]1(O)CC[C@H]2[C@@H]3CCC4=CC(=O)CC[C@]4(C)[C@H]3CC[C@@]21C)OCC', 'growth inhibition', '%', 5.55),
  ('C[CH2][Sn]([CH2]C)([O]C(=O)c1ccccc1OC)[O][Sn]([CH2]C)([CH2]C)[O]C(=O)c1ccccc1OC', 'growth inhibition', '%', 41),
  ('CN(C)[C@@H]1C(=O)C(C(=O)NCNc2nc3n[nH]nc3c(=O)[nH]2)=C(O)[C@@]2(O)C(=O)C3=C(O)c4c(O)cccc4[C@@](C)(O)[C@H]3C[C@@H]12', 'growth inhibition', '%', 11.2),
  ('Cc1c2c(c(C)c3c1OC(C)(C)CC3)OC(C)(C)CC2', 'growth inhibition', '%', 77.2),
  ('C/C(=N\NC(=S)N(C)C)c1cccnn1', 'growth inhibition', '%', 91.4),
  ('Clc1ccc(OCC(Cn2ccnc2)c2ccc(Cl)cc2)cc1 (stereo not drawn)', 'growth inhibition', '%', 99.9),
  ('CC[N](CC)[Ge]([CH2]C)[CH2]C.CC[N](CC)[Ge]([CH2]C)[CH2]C', 'growth inhibition', '%', 76.9),
  ('CC/C(=C(/CC)c1ccc([O-])cc1)c1ccc([O-])cc1.CC/C(=C(\CC)c1ccc([O-])cc1)c1ccc([O-])cc1.O=C([CH-]C(=O)c1ccccc1)c1ccccc1.O=C([CH-]C(=O)c1ccccc1)c1ccccc1.O=C([CH-]C(=O)c1ccccc1)c1ccccc1.O=C([CH-]C(=O)c1ccccc1)c1ccccc1.[Ti+4].[Ti+4]', 'growth inhibition', '%', 84),
  ('C=C(Br)COc1ccc2c(C)cc(=O)oc2c1', 'growth inhibition', '%', 25.7),
  ('Oc1c(Cl)cc(Cl)cc1/C=C1\C=Nc2ccccc21', 'growth inhibition', '%', 14.9),
  ('C=CS(=O)(=O)c1ccc([N+](=O)[O-])cc1', 'growth inhibition', '%', 99.7),
  ('CC(C)CC(CC(C)C)NCC(C)OC(=O)C(c1ccccc1)c1ccccc1 (stereo not drawn)', 'growth inhibition', '%', 50.3),
  ('C/C=C/CSc1cc(NC(=S)c2ccsc2C)ccc1Cl', 'growth inhibition', '%', 85.8),
  ('COc1cccc2c1C(=O)c1c(O)c3c(c(O)c1C2=O)C[C@@](O)(C(C)=O)C[C@@H]3OC1CC([N+]([O-])(Cc2ccccc2)Cc2ccccc2)C(O)C(C)O1 (stereo partly drawn)', 'growth inhibition', '%', 23.9),
  ('Cc1[nH]c(=O)[nH]c(=O)c1CN(C)Cc1cc(Cl)cc(Cl)c1O', 'growth inhibition', '%', 26.9),
  ('[O-][n+]1ccccc1Sc1nc(Sc2cccc[n+]2[O-])nc(Sc2cccc[n+]2[O-])n1', 'growth inhibition', '%', 91.7),
  ('O=c1c(SSc2coc3ccccc3c2=O)coc2ccccc12', 'growth inhibition', '%', 96.3),
  ('COc1ccc2c(c1)n([O-])c1cc(C#N)ccc1[n+]2=O', 'growth inhibition', '%', 45.6),
  ('CCOC(=O)Nc1nc2ccc(Cn3cccc3)cc2[nH]1', 'growth inhibition', '%', -12.5),
  ('Cc1cccc(NC(=O)c2cc3cc(N=Nc4ccccc4Cl)ccc3oc2=O)c1', 'growth inhibition', '%', 70),
  ('CCCC(/C=N/N=C(N)N)=N\N=C(N)N', 'growth inhibition', '%', -8.95),
  ('Cc1ccccc1NC(=O)Cc1csc(N=Nc2c(O)[nH]c3ccccc23)n1', 'growth inhibition', '%', -42.9),
  ('O=C(NC1CCN(Cc2ccccc2)CC1)c1ccccc1I', 'growth inhibition', '%', 39.9),
  ('CCC1=C(C)/C(=C/c2[nH]c(C(Br)Br)c(CC)c2C)N=C1C(Br)Br', 'growth inhibition', '%', 45.1),
  ('COc1cc2c(cc1OC)C(N(C)C)C(c1ccccc1)=C2Cl (stereo not drawn)', 'growth inhibition', '%', 93.5),
  ('CC(C)C(O)(C(=O)OCN1C(=O)C2C3C=CC(C2C1=O)C1C2C(=O)N(COC(=O)C(O)(C(C)C)C(C)O)C(=O)C2C31)C(C)O (stereo not drawn)', 'growth inhibition', '%', 52),
  ('CCCCCC(C)NCC(O)Cc1ccc(OCCCC)cc1 (stereo not drawn)', 'growth inhibition', '%', 99.3),
  ('O=S(=O)(O)CC[S][Sn]([S]CCS(=O)(=O)O)([c]1ccccc1)[c]1ccccc1 (tested in a mixture with another compound)', 'growth inhibition', '%', 83.2),
  ('CCSC1(SCC)C(=O)OC2=C(CCCC2)C1N1CCOCC1 (stereo not drawn)', 'growth inhibition', '%', 14.2);

---

Assay: NCI Yeast Anticancer Drug Screen. Data for the mlh1 rad18 strain (AID 175)
Details: S. cerevisiae mlh1 rad18 strain growth inhibition; at 50.0 µM (retest, dose inferred, filed as 5.0)
The panel holds about 79,000 compounds, 15% with a hit somewhere; the sample as a whole holds those more often. Activity calls are given as the source filed them. No stated cut-off is given here; in the data, active means growth inhibition above about 70%; inactive means the rest.
Labels: active, inactive

INSERT INTO measurements (compound, class_label) VALUES
  ('OC(Cc1ccccc1)(Cc1ccccc1)c1ccccc1', 'active'),
  ('COc1ccc(C2=C(Cl)C(=O)N(c3ccc(C)cc3)C(=O)C2(Cl)Cl)cc1', 'inactive'),
  ('Cc1c2cnccc2c(C)c2c1c1ccccc1n2CCCCCCNCc1ccccc1', 'active'),
  ('O=C(NC(c1ccccc1)N1CCOCC1)c1ccccc1 (stereo unspecified)', 'inactive'),
  ('CCCCN(CCCC)CC(O)c1ccc2cc(Cl)c3ccccc3c2c1 (stereo unspecified)', 'active'),
  ('CC1=Nc2ccccc2/C1=C\c1c(C)[nH]c2ccccc12', 'active'),
  ('CCC(=O)[O][Bi]([c]1ccccc1)[c]1ccccc1', 'active'),
  ('C/C(=N\NC(=S)N1CCCCCC1)c1ccccn1', 'active'),
  ('CCCCCCCCCCCCCCCCOC(=O)C[n+]1cccc(C(N)=O)c1', 'active'),
  ('CCOC(=O)/C(C#N)=C\c1ccc(N(CCC(=O)O)CCC(=O)O)c(I)c1', 'active'),
  ('C=CC1(c2ccc(-c3ccccc3)cc2)OCCO1', 'inactive');

---

Experiment: NCI Yeast Anticancer Drug Screen. Data for the mec2-1 strain (AID 157)
Conditions: S. cerevisiae mec2-1 strain, at 5.0 µM (retest, dose inferred, filed as 0.5), active compounds read high
About 79,000 compounds went through this panel and 15% of them were active in at least one assay; those are over-represented in the sample as a whole.
Cut-off 20% on growth inhibition, inclusive. At or above means t; below means f.

INSERT INTO results (compound, class_label) VALUES
  ('FC(F)(F)C(F)(F)C1(F)C(F)(F)C(F)(F)C(F)(F)C(F)(F)C1(F)F', 'f'),
  ('O=C1C=CC(=C(c2ccccc2)c2ccc(O)cc2)C=C1', 'f'),
  ('O=C(N/C(=C\c1ccc(Oc2ccc(Cl)c(Cl)c2)cc1)c1nc2ccccc2[nH]1)c1ccccc1', 'f'),
  ('CCCCCCCCCCCC(=O)OCCOC(=O)CCCCCCCCCCC', 'f'),
  ('Cc1c2cc[n+](C)cc2c(COC2OC(CO)C(O)C2O)c2c3ccccc3n(C)c12 (stereo not drawn)', 'f'),
  ('CCOC(=O)c1cc(NC(=O)c2cc(NC(=O)c3cc(NC(=O)c4c(-c5ccccc5)noc4C)cn3C)cn2C)cn1C', 'f'),
  ('Clc1ccc(C2SCc3nc4ccccc4n32)cc1Cl (stereo not drawn)', 'f'),
  ('CCOC(=O)C(C(=O)O)(C(c1ccccc1)c1ccccc1)C(c1ccccc1)c1ccccc1', 't'),
  ('C=C(Br)COc1ccc2c(C)cc(=O)oc2c1', 't'),
  ('CC1(Cc2ccccc2)CCCC(C=O)C1=O.[Cu+2] (stereo not drawn)', 'f'),
  ('CC(C)N(C(=O)C12C3C4C5(C#N)C3C1(C#N)C5C42I)C(C)C (stereo not drawn)', 't'),
  ('Oc1cccc(-c2nc(-c3ccccc3)c(-c3ccccc3)[nH]2)c1', 'f'),
  ('OC(CN1CCc2ccccc2C1)c1ccc2ccccc2c1 (stereo not drawn)', 'f'),
  ('C1CCC(CCCCc2nn[nH]n2)CC1', 'f'),
  ('c1ccc(N=Nc2ccc3ccccc3c2)cc1', 'f'),
  ('COc1ccc(C2=NN(c3ccccc3)C[N+](c3ccc(C)cc3)=N2)cc1', 'f'),
  ('COc1ccc(-c2cc(-c3ccc(OC)cc3OC)[n+](C)c(-c3ccc(OC)cc3OC)c2)cc1', 't'),
  ('CC1(C)NC(=O)C(C)(C)NC1=O', 'f'),
  ('O=C(/C(Cl)=N/O)c1ccccc1', 't'),
  ('O=C1c2ccccc2C(O)(c2ccccc2)N1c1ccc([N+](=O)[O-])cc1 (stereo not drawn)', 'f'),
  ('O=C(Nc1ccc(Cl)cc1)Nc1nnc2nc(C(C(=O)/C=C/c3ccccc3)c3nc4nnc(NC(=O)Nc5ccc(Cl)cc5)n4[nH]c3=O)c(=O)[nH]n12', 'f'),
  ('c1ccc([P+](c2ccccc2)(c2ccccc2)C2CCCCO2)cc1 (stereo not drawn)', 'f'),
  ('COc1ccc2nccc(C(=O)CBr)c2c1', 't'),
  ('Nc1cn(C2OC(CC(c3ccccc3)(c3ccccc3)c3ccccc3)C(O)C2O)c(=O)[nH]c1=O (stereo not drawn)', 't'),
  ('COc1ccc(CC/C(=N/O)c2ccccc2)cc1', 'f'),
  ('Cc1ccc(Nc2nc(C)c(C(/C=C/c3ccc4c(c3)OCO4)=N/Nc3ccc([N+](=O)[O-])cc3[N+](=O)[O-])s2)c([N+](=O)[O-])c1', 't'),
  ('O=C1C(Cl)=C(Cl)C(=O)C2CC=CCC12 (stereo not drawn)', 't'),
  ('CCCCc1c2c(nc3c1CC/C(=C\c1ccc([N+](=O)[O-])cc1)C3=O)CCCC2', 't'),
  ('O=C(O)c1c([N+](=O)[O-])cc(C(F)(F)F)cc1[N+](=O)[O-]', 'f'),
  ('COc1ccc(-c2nnc(C)nc2-c2ccc(OC)cc2)cc1', 'f'),
  ('CC(=O)/C(=C\c1c(Cl)cccc1Cl)C(=O)CCN(C)C', 'f'),
  ('O=C(Nc1ccc(F)cc1)N1CCCCC1', 't'),
  ('COc1ccc2c(c1)CN1C(CCC3c4ccccc4NC31)C2 (stereo not drawn)', 'f'),
  ('COc1cc2c(cc1OC(C)=O)C(=O)C(Br)(Br)CCC2', 't'),
  ('NC1=NOC(=O)C1Cc1ccccc1 (stereo not drawn)', 'f'),
  ('Cc1ccc(S(=O)(=O)OCC(C)(C)C)cc1', 'f'),
  ('O=C1CN(CCN2CCOCC2)CC(=O)N2Cc3ccccc3CN12', 'f'),
  ('CCOC(=O)N1C=CC(=C2C(=C3C=CN(C(=O)OCC)C=C3)C(=C3C=CN(C(=O)OCC)C=C3)C2=C2C=CN(C(=O)OCC)C=C2)C=C1', 'f'),
  ('Cc1cccc2c(Nc3ccc(NS(C)(=O)=O)cc3)c3ccccc3nc12', 'f'),
  ('CCCCCCCCCCN1CCN(C(=O)OCC)CC1', 't'),
  ('CCCCC(=O)OC1=C(Br)C(=O)c2ccccc2C1=O', 't'),
  ('Cc1c(CCCl)c(N=[N+]=[N-])n2c(nc3ccccc32)c1C#N', 't');
